Quick reference: kcat, 1 mM LxExG (Hz) of the listed items.
System: LPESG (Abz-LPESGK(Dnp)-CONH2)
experiment_notes: In vitro sortase kinetics HPLC assay, LPESG substrate
Assay type: biochemical
stated_conditions: 1 mM 4S (LPESG) substrate; GGG varied

molecule	kcat, 1 mM LxExG (Hz)
4S.6B: 5mut + N98D A104V A118S F122A K134P I182V E189P (protein) QAKPQIPKDKSKVAGYIEIPDADIKEPVYPGPATREQLDRGVSFVEENESLDDQNISISGHTAIDRPNYQFTNLPAAKKGSMVYFKVGNETRKYKMTSIRNVKPTAVEVLDEQKGKDKQLTLVTCDDYNPETGVWETRKIFVATEVK	2.132 Hz
eSrtA(4S-5): 5mut + N98D A104V A118T F122A K134R I182V (protein) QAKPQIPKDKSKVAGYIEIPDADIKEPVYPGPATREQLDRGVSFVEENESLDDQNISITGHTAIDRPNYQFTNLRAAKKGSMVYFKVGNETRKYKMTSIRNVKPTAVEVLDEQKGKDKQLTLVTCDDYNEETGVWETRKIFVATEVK	1.342 Hz
4S.6C: 5mut + N98D A104V A118T F122A K134R I182V E189F (protein) QAKPQIPKDKSKVAGYIEIPDADIKEPVYPGPATREQLDRGVSFVEENESLDDQNISITGHTAIDRPNYQFTNLRAAKKGSMVYFKVGNETRKYKMTSIRNVKPTAVEVLDEQKGKDKQLTLVTCDDYNFETGVWETRKIFVATEVK	1.502 Hz
4S.6A: 5mut + N98D A104V A118S F122A K134G I182V E189V (protein) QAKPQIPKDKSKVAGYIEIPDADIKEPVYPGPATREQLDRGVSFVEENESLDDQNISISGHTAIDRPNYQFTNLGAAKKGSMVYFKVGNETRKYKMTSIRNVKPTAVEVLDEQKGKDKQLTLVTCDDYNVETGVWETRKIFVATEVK	1.931 Hz
